# Target system: human glucagon receptor (Homo sapiens, UniProt P47871)
# Construct: expressed in transfected cells; host or cells: CHO-K1 cells, stably transfected
# Sequence (P47871 26-477): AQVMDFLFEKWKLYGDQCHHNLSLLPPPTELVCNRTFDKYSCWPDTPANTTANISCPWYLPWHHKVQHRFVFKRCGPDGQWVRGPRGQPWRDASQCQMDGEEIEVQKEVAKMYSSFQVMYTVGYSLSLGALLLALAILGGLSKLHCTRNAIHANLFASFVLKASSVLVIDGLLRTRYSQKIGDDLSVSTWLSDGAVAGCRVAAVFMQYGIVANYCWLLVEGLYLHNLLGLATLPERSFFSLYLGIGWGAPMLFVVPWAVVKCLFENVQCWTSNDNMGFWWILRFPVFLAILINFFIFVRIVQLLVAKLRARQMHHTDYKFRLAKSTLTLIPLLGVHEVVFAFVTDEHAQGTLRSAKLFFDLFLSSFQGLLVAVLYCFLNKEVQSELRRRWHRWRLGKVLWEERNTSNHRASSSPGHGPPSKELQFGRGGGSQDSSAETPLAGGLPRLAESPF
# Assay notes: Glucagon cAMP assay (Cisbio cAMP detection); also: 100 pM glucagon challenge
# Assay type: cell-based
Measurement label: Kb (nM)
Quick reminder: number only, in nM, skip the unit.

Prompt line: API: value(readout=Kb, system=human glucagon receptor (Homo sapiens, UniProt P47871)) for record CCC(Nc1ccc(C(=O)NCCC(=O)O)cn1)c1ccc(-c2ccc(C(F)(F)F)cc2)cc1 (racemic) [Example 1.11]
Response line: 280

Prompt line: Could you do the same for CC(C)CC(Nc1ccc(-c2ccc(C(F)(F)F)cc2)cc1)c1ccc(C(=O)NCc2nnn[nH]2)cn1 (racemic) [Example 2.12] , please?
Response line: 730

Prompt line: Could you do the same for CC(C)C[C@@H](Nc1ccc(C(=O)NCCC(=O)O)cn1)c1ccc(-c2ccc(C(F)(F)F)cc2)nc1 (single isomer, unassigned; isomer 1) [Example 4.20] , please?
Response line: 61

Prompt line: Could you do the same for CC(C)CC(Nc1ncc(C(=O)NCCC(=O)O)cn1)c1ccc(-c2ccc(C(F)(F)F)cc2)cc1 (single isomer, unassigned; isomer 2) [Example 1.6] , please?
Response line: 210

Prompt line: Could you do the same for COc1cccc(-c2ccc(C(CC(C)C)Nc3ccc(C(=O)NCCC(=O)O)cn3)cc2)c1 (racemic) [Example 1.47] , please?
Response line: 180

Prompt line: Could you do the same for O=C(O)CCNC(=O)c1ccc(NC(c2ccc(-c3ccc(C(F)(F)F)cc3)cc2)C2CCCC2)nc1 (racemic) [Example 1.35] , please?
Response line: 50

Prompt line: Could you do the same for CC(C)CC(Nc1ccc(C(=O)NCCC(=O)O)cn1)c1ccc(-c2ccc(C(F)(F)F)cc2)cc1 (racemic) [Example 1.2] , please?
Response line: 140

Prompt line: Could you do the same for CCCC(Nc1cnc(-c2ccc(C(F)(F)F)cc2)nc1)c1ccc(C(=O)NCCC(=O)O)cc1 (single isomer, unassigned; isomer 1) [Example 2.16] , please?
Response line: 120

Prompt line: Could you do the same for CCCC(Nc1ccc(C(=O)NCCC(=O)O)cn1)c1ccc(-c2ccc(C(F)(F)F)cc2)cc1 (single isomer, unassigned; isomer 2) [Example 1.9] , please?
Response line: 130

Prompt line: Could you do the same for CC(C)C[C@@H](Nc1ccc(C(=O)NCCC(=O)O)cn1)c1ccc(-c2ccc(C(F)(F)F)cc2)cc1 [Example 1.1] , please?
Response line: 1700

Prompt line: Could you do the same for CCC[C@H](Nc1cnc(-c2ccc(C(F)(F)F)cc2)cn1)c1ccc(C(=O)NCCC(=O)O)cc1 [Example 4.4] , please?
Response line: 66

Prompt line: Could you do the same for COc1ccc(-c2ccc(C(CC(C)C)Nc3ccc(C(=O)NCCC(=O)O)cn3)cc2)cc1 (racemic) [Example 1.52] , please?
Response line: 120

Prompt line: Could you do the same for CC(C)CC(Nc1ccc(C(=O)NCCC(=O)O)cn1)c1ccc(-c2cccc(F)c2)cc1 (racemic) [Example 1.41] , please?
Response line: 450

Prompt line: Could you do the same for CC(C)CC(Nc1cnc(-c2ccc(C(F)(F)F)cc2)nc1)c1ccc(C(=O)NCCC(=O)O)nc1 (centres unmarked) [Example 4.32] , please?
Response line: 2700

* * *

# Target system: human glucagon receptor (Homo sapiens)
# Construct: expressed in transfected cells; host or cells: CHO-K1 cells, stably transfected
# Assay notes: Glucagon cAMP assay (Cisbio cAMP detection); also: 100 pM glucagon challenge
# Type: cell-based
Measurement label: Kb (µM)
Quick reminder: number only, in µM, skip the unit.

Prompt line: Return reported Kb; argument: CCCC(Nc1cnc(-c2ccc(C(F)(F)F)cc2)c(C)c1)c1ccc(C(=O)NCCC(=O)O)cn1 (racemic)
Response line: 0.82

Prompt line: Could you do the same for CC(C)C(Nc1ccc(C(=O)NCCC(=O)O)cn1)c1ccc(-c2ccc(C(F)(F)F)cc2)cc1 (single isomer, unassigned; (+)) [Example 1.14] , please?
Response line: 0.99

Prompt line: Could you do the same for CC(C)C(Nc1ccc(C(=O)NCCC(=O)O)cn1)c1ccc(-c2ccc(C(F)(F)F)cc2)cc1 (racemic) [Example 1.10] , please?
Response line: 0.18

* * *

Exercise: for every item that follows, state its recorded Kb.
# Target system: human glucagon receptor (Homo sapiens, UniProt P47871)
# Construct: expressed in transfected cells; host or cells: CHO-K1 cells, stably transfected
# Assay notes: Glucagon cAMP assay (Cisbio cAMP detection); also: 100 pM glucagon challenge
# Type: cell-based
Just the number plus its unit, please.

Prompt line: API: value(readout=Kb, system=human glucagon receptor (Homo sapiens, UniProt P47871)) for record CCC[C@@H](Nc1cnc(-c2ccc(C(F)(F)F)cc2)cn1)c1ccc(C(=O)NCCC(=O)O)cc1
Response line: 820 nM

Prompt line: Could you do the same for CC(C)CC(Nc1ccc(C(=O)NCc2nn[nH]n2)cn1)c1ccc(-c2ccc(C(F)(F)F)cc2)cc1 (racemic) , please?
Response line: 520 nM

Prompt line: Could you do the same for CC(C)CC(Nc1ncc(C(=O)Nc2nnn[nH]2)cn1)c1ccc(-c2ccc(C(F)(F)F)cc2)cc1 (racemic) , please?
Response line: 890 nM

Prompt line: Could you do the same for CC(C)CC(Nc1ncc(C(=O)NCCC(=O)O)cn1)c1ccc(-c2ccc(C(F)(F)F)cc2)cc1 (racemic) [Example 1.4] , please?
Response line: 560 nM

* * *

# Target system: human glucagon receptor (Homo sapiens, UniProt P47871)
# Construct: expressed in transfected cells; host or cells: CHO-K1 cells, stably transfected
# Assay notes: Glucagon cAMP assay (Cisbio cAMP detection); also: 100 pM glucagon challenge
# Type: cell-based
Measurement label: Kb (µM)
Quick reminder: number only, in µM, skip the unit.

Prompt line: Return reported Kb; argument: CC(C)CC(Nc1ccc(C(=O)N(C)CCC(=O)O)cn1)c1ccc(-c2ccc(C(F)(F)F)cc2)cc1 (single isomer, unassigned) [Example 4.6]
Response line: 0.053

Prompt line: Could you do the same for CC(C)CC(Oc1ccc(-c2ccc(C(F)(F)F)cc2)cc1)c1ccc(C(=O)NCCC(=O)O)cn1 (racemic) , please?
Response line: 1.5

Prompt line: Could you do the same for CC(C)CC(Nc1ccc(-c2ccc(C(F)(F)F)cc2)cc1)c1ccc(C(=O)NCCC(=O)O)cn1 (single isomer, unassigned; isomer 2) [Example 2.6] , please?
Response line: 0.5

* * *

# Target system: human glucagon receptor (Homo sapiens, UniProt P47871)
# Construct: expressed in transfected cells; host or cells: CHO-K1 cells, stably transfected
# Assay notes: Glucagon cAMP assay (Cisbio cAMP detection); also: 100 pM glucagon challenge
# Type: cell-based
# binning rule on Kb: lower: < 100 nM; middle: ≥ 100 nM and < 600 nM; upper: ≥ 600 nM

Prompt line: Category of CCCC(Nc1ccc(C(=O)NCCC(=O)O)cn1)c1cnc(-c2ccc(OC(F)(F)F)cc2)nc1 (centres unmarked) :
Response line: lower

Prompt line: Could you do the same for CCCC(Nc1ccc(C(=O)NCCC(=O)O)cn1)c1ccc(-c2ccc(C(F)(F)F)cc2)c(C#N)c1 (racemic) , please?
Response line: middle

Prompt line: Could you do the same for Cc1cc(C(CC(C)C)Nc2ccc(C(=O)NCCC(=O)O)cn2)ccc1-c1ccc(C(F)(F)F)cc1 (racemic) , please?
Response line: lower

Prompt line: Could you do the same for CC(C)CC(Nc1ccc(-c2ccc(C(F)(F)F)cc2)cc1)c1ccc(C(=O)Nc2nn[nH]n2)cn1 (racemic) , please?
Response line: upper

Prompt line: Could you do the same for CC(C)(C)CC(Nc1ccc(C(=O)NCCC(=O)O)cn1)c1ccc(-c2ccc(C(F)(F)F)cc2)cc1 (racemic) , please?
Response line: middle

Prompt line: Could you do the same for CC(C)CC(Nc1cnc(C(=O)NCCC(=O)O)cn1)c1ccc(-c2ccc(C(F)(F)F)cc2)cc1 (single isomer, unassigned; isomer 1) [Example 1.17] , please?
Response line: upper

Prompt line: Could you do the same for CC(C)CC(Nc1ccc(C(=O)NCCC(=O)O)cn1)c1ccc(-c2cccc(Cl)c2)cc1 (racemic) , please?
Response line: middle

Prompt line: Could you do the same for CC(C)C[C@@H](Nc1ccc(C(=O)NCCC(=O)O)cn1)c1ccc(-c2ccc(C(F)(F)F)cc2)nc1 (single isomer, unassigned; isomer 2) [Example 4.21] , please?
Response line: upper

Prompt line: Could you do the same for CC(C)CC(Nc1ccc(C(=O)NCCC(=O)O)cn1)c1ccc(-c2ccc(C(C)C)cc2)cc1 (racemic) , please?
Response line: middle

Prompt line: Could you do the same for CC(C)CC(Nc1ccc(C(=O)NCCC(=O)O)cn1)c1ccc(-c2ccc(C#N)cc2)cc1 (racemic) , please?
Response line: upper

Prompt line: Could you do the same for CCCC(Nc1cnc(C(=O)NCCC(=O)O)cn1)c1ccc(-c2ccc(C(F)(F)F)cc2)cc1 (racemic) , please?
Response line: middle

Prompt line: Could you do the same for CCCC(Nc1ccc(-c2ccc(C(F)(F)F)cc2)nc1)c1ccc(C(=O)NCCC(=O)O)cc1 (centres unmarked) , please?
Response line: lower
